test system: Plasmopara viticola; experiment: Plasmopara test (grapevines) / preventive; type: in vivo; conditions: 100 ppm of active ingredient, evaluated 6 days after inoculation
A collection of compounds and their measured efficacy
PROPERTY: efficacy (%)

- COMPOUND: "Cc1snnc1C(=NOCc1cccc(NC(=O)C2COc3ccccc3O2)n1)c1ccccc1 (mixture of isomers)"
  PROPERTY: "efficacy"
  MEASURED: 98
- COMPOUND: "Cc1snnc1C(=NOCc1cccc(NC(=O)C2Cc3ccccc3O2)n1)c1ccccc1 (racemic)"
  PROPERTY: "efficacy"
  MEASURED: 74
- COMPOUND: "Cc1snnc1C(=NOCc1csc(NC(=O)C2COc3ccccc3O2)n1)c1ccccc1 (stereo not shown) [Example 1]"
  PROPERTY: "efficacy"
  MEASURED: 94
- COMPOUND: "Cc1snnc1C(=NOCc1csc(NC(=O)C2COc3ccccc3O2)n1)c1ccccc1 (racemic) [Example 6]"
  PROPERTY: "efficacy"
  MEASURED: 77
